Taken from patent US20250018014A1.

Target: T1, full-length human Regnase-1 with a FLAG tag on the N-terminal side and a biotin ligase BirA recognition … (human, UniProt Q5D1E8 1-599, biotinylated at the BirA recognition sequence when required)
T1 sequence: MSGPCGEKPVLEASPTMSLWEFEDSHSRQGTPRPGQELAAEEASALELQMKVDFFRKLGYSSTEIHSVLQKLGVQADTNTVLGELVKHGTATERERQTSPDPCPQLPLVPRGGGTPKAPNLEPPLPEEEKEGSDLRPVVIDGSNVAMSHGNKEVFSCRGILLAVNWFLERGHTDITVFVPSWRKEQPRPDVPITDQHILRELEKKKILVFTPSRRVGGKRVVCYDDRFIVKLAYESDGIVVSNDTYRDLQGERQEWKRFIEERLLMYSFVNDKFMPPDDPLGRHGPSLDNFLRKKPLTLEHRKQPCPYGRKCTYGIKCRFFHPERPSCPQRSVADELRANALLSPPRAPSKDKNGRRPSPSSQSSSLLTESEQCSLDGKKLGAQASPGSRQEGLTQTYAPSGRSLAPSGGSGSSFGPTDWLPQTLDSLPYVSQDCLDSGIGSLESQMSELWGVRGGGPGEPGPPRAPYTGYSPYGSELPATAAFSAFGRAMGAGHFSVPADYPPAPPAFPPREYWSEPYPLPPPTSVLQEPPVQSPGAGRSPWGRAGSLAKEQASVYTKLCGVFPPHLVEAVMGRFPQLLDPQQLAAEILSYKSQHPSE
Assay: cell-based or functional assay
Positions of bridges follow the written chain, without caps; N, C: chain ends. Non-standard residues stand in square brackets, D forms with d. *: point of attachment. Pyrrolidide = C1CCN(*)C1; dNMeA = CN[C@H](C)C(=O)O
readout type: 50% inhibition concentration, Regnase-1 phosphorylation by TBK1 (AlphaScreen)

Study these solved cases before continuing.
>>> experimental_result("XDIWFDYWDWD (HELM PEPTIDE1{[meA].D.I.W.F.D.Y.W.D.W.D.[C1CCN([*:1])C1]}$PEPTIDE1,PEPTIDE1,1:R1-11:R3$$$V2.0; SMILES CC[C@H](C)[C@@H]1NC(=O)[C@H](CC(=O)O)NC(=O)[C@H](C)N(C)C(=O)C[C@@H](C(=O)N2CCCC2)NC(=O)[C@H](Cc2c[nH]c3ccccc23)NC(=O)[C@H](CC(=O)O)NC(=O)[C@H](Cc2c[nH]c3ccccc23)NC(=O)[C@H](Cc2ccc(O)cc2)NC(=O)[C@H](CC(=O)O)NC(=O)[C@H](Cc2ccccc2)NC(=O)[C@H](Cc2c[nH]c3ccccc23)NC1=O) [PP17]")
"< 0.06 µM"
>>> experimental_result("XKFWIHHSFED (HELM PEPTIDE1{[meA].K.F.W.I.H.H.S.F.E.D.[C1CCN([*:1])C1]}$PEPTIDE1,PEPTIDE1,1:R1-11:R3$$$V2.0; SMILES CC[C@H](C)[C@@H]1NC(=O)[C@H](Cc2c[nH]c3ccccc23)NC(=O)[C@H](Cc2ccccc2)NC(=O)[C@H](CCCCN)NC(=O)[C@H](C)N(C)C(=O)C[C@@H](C(=O)N2CCCC2)NC(=O)[C@H](CCC(=O)O)NC(=O)[C@H](Cc2ccccc2)NC(=O)[C@H](CO)NC(=O)[C@H](Cc2c[nH]cn2)NC(=O)[C@H](Cc2c[nH]cn2)NC1=O) [PP20]")
"38.5 µM"
>>> experimental_result("XNFSNSWYNIWD (HELM PEPTIDE1{[meA].N.F.S.N.S.W.Y.N.I.W.D.[C1CCN([*:1])C1]}$PEPTIDE1,PEPTIDE1,1:R1-12:R3$$$V2.0; SMILES CC[C@H](C)[C@@H]1NC(=O)[C@H](CC(N)=O)NC(=O)[C@H](Cc2ccc(O)cc2)NC(=O)[C@H](Cc2c[nH]c3ccccc23)NC(=O)[C@H](CO)NC(=O)[C@H](CC(N)=O)NC(=O)[C@H](CO)NC(=O)[C@H](Cc2ccccc2)NC(=O)[C@H](CC(N)=O)NC(=O)[C@H](C)N(C)C(=O)C[C@@H](C(=O)N2CCCC2)NC(=O)[C@H](Cc2c[nH]c3ccccc23)NC1=O) [PP16]")
"52.4 µM"

50% inhibition concentration, Regnase-1 phosphorylation by TBK1 (AlphaScreen) measured on [dNMeA]TYGHSSWYKIWD-Pyrrolidide (lactam N-13) [PP9] = 4.2 µM

50% inhibition concentration, Regnase-1 phosphorylation by TBK1 (AlphaScreen) measured on XNSWYRIWGLD (HELM PEPTIDE1{[meA].N.S.W.Y.R.I.W.G.L.D.[C1CCN([*:1])C1]}$PEPTIDE1,PEPTIDE1,1:R1-11:R3$$$V2.0; SMILES CC[C@H](C)[C@@H]1NC(=O)[C@H](CCCNC(=N)N)NC(=O)[C@H](Cc2ccc(O)cc2)NC(=O)[C@H](Cc2c[nH]c3ccccc23)NC(=O)[C@H](CO)NC(=O)[C@H](CC(N)=O)NC(=O)[C@H](C)N(C)C(=O)C[C@@H](C(=O)N2CCCC2)NC(=O)[C@H](CC(C)C)NC(=O)CNC(=O)[C@H](Cc2c[nH]c3ccccc23)NC1=O) [PP22] = 24.3 µM
